Reported GI50 by item:
- assay.summary: cells
- conditions: Mus musculus, BaF3, 96 h
- Description: Growth inhibition of mouse BA/F3 cells expressing EGFR Del1 and Thr790Met mutant after 96 hrs by cell titer-glo assay

smi: CN(C)CCCC(=O)Nc1ccc2ncnc(Nc3cccc(Br)c3)c2c1
GI50: > 5000 nM

smi: C#Cc1cccc(Nc2ncnc3cc(OCCOC)c(OCCOC)cc23)c1
GI50: > 5000 nM

smi: CCC(=O)Nc1ccc2nccc(Nc3cccc(Br)c3)c2c1
GI50: > 500 nM

smi: C#Cc1cccc(Nc2ncnc3cc(OC)c(OC)cc23)c1
GI50: > 500 nM

smi: C=CC(=O)Nc1ccc2ncnc(Nc3cccc(Br)c3)c2c1
GI50: > 500 nM

smi: C=CC(=O)Nc1ccc2nccc(Nc3cccc(Br)c3)c2c1
GI50: > 500 nM

Asked: Return reported GI50; argument: "C#Cc1cccc(Nc2ccnc3cc(OCCOC)c(OCCOC)cc23)c1"
Given back: > 500 nM

Asked: Return reported GI50; argument: "CN(C)CCCC(=O)Nc1ccc2nccc(Nc3cccc(Br)c3)c2c1"
Given back: > 500 nM

Asked: Return reported GI50; argument: "C#Cc1cccc(Nc2ccnc3cc(OC)c(OC)cc23)c1"
Given back: > 5000 nM

###

- system.name: Epidermal growth factor receptor (Homo sapiens, UniProt P00533, L858R)
- Sequence (P00533 25-1210 L858R limits assumed): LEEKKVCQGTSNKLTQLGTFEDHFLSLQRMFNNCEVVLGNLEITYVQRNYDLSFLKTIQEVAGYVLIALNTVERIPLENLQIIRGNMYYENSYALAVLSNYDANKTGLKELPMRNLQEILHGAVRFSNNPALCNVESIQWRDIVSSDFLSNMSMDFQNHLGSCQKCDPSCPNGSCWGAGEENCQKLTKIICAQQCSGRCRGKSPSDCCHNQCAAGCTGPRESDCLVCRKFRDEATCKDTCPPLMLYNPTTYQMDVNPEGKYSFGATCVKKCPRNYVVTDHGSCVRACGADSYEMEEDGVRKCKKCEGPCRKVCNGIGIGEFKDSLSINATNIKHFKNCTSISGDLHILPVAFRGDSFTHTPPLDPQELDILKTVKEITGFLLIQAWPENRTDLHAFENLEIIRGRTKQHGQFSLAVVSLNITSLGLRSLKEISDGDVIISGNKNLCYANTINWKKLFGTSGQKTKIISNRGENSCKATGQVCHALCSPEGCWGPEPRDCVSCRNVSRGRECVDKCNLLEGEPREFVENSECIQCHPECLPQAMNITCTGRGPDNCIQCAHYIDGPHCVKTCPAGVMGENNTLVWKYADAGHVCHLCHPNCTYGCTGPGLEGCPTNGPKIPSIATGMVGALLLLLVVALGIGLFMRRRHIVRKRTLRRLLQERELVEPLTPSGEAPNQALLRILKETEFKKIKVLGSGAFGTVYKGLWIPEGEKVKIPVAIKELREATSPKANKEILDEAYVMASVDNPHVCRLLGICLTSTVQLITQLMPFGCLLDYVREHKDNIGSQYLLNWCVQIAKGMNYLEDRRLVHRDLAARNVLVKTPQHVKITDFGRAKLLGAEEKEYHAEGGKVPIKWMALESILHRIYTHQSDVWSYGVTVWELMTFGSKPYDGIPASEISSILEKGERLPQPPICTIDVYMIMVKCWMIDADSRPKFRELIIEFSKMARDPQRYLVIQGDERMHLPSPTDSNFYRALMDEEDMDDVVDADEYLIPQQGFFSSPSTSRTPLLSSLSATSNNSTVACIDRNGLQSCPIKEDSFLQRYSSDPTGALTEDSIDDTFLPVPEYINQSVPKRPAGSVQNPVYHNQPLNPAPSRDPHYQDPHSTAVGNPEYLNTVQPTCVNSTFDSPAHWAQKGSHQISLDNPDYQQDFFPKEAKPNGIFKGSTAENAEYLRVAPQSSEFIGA
- assay.summary: Inhibition of EGFR Leu858Arg mutant by HTRF assay
Reported IC50 by item:
Report the value in nM with no unit label.

smi: C#Cc1cccc(Nc2ccnc3cc(OCCOC)c(OCCOC)cc23)c1
IC50 [nM]: 14

smi: C#Cc1cccc(Nc2ccnc3cc(OC)c(OC)cc23)c1
IC50 [nM]: 4

Asked: Return reported IC50; argument: "CN(C)CCCC(=O)Nc1ccc2nccc(Nc3cccc(Br)c3)c2c1"
Given back: 0.5

###

- assay.summary: cells
- conditions: Mus musculus, BaF3, 96 h
quantity.measured: GI50

Reference set, count: 2
smi: C#Cc1cccc(Nc2ncnc3cc(OC)c(OC)cc23)c1
GI50: < 500 nM
//
smi: CN(C)CCCC(=O)Nc1ccc2nccc(Nc3cccc(Br)c3)c2c1
GI50: < 500 nM

Proceed to the following item.
Asked: Return reported GI50; argument: "C=CC(=O)Nc1ccc2nccc(Nc3cccc(Br)c3)c2c1"
Given back: < 500 nM

###

- assay.summary: cells
- conditions: Mus musculus, BaF3, 96 h
- Description: Growth inhibition of mouse BA/F3 cells expressing EGFR Del5 mutant after 96 hrs by cell titer-glo assay
Reported GI50 by item:

Reference set, count: 4
smi: CN(C)CCCC(=O)Nc1ccc2ncnc(Nc3cccc(Br)c3)c2c1
GI50: < 500 nM
//
smi: C=CC(=O)Nc1ccc2nccc(Nc3cccc(Br)c3)c2c1
GI50: < 500 nM
//
smi: CCC(=O)Nc1ccc2nccc(Nc3cccc(Br)c3)c2c1
GI50: > 500 nM
//
smi: CN(C)CCCC(=O)Nc1ccc2nccc(Nc3cccc(Br)c3)c2c1
GI50: < 500 nM

Asked: Return reported GI50; argument: "C#Cc1cccc(Nc2ccnc3cc(OC)c(OC)cc23)c1"
Given back: < 500 nM

Asked: Return reported GI50; argument: "C#Cc1cccc(Nc2ncnc3cc(OC)c(OC)cc23)c1"
Given back: < 500 nM

Asked: Return reported GI50; argument: "C#Cc1cccc(Nc2ncnc3cc(OCCOC)c(OCCOC)cc23)c1"
Given back: < 500 nM

Asked: Return reported GI50; argument: "C=CC(=O)Nc1ccc2ncnc(Nc3cccc(Br)c3)c2c1"
Given back: < 500 nM

Asked: Return reported GI50; argument: "C#Cc1cccc(Nc2ccnc3cc(OCCOC)c(OCCOC)cc23)c1"
Given back: > 5000 nM
